System: HEK-293T
Assay: Multiplex assay against HEK293T
Type: toxicity, cell-based
Conditions: human, 12 h, 10 µM, compound concentration 10 uM, replicate 1
Would you mind classing the entries by Population Mitotic Cells (%)? Ranges: low: < 40%; middle: ≥ 40% and < 60%; high: ≥ 60%

molecule="CN1CCC(=C2c3ccccc3CC(=O)c3sccc32)CC1.O=C(O)/C=C/C(=O)O [KETOTIFEN FUMARATE]" group=low

Which of the defined bands does the recorded Population Mitotic Cells (%) of CCN1CCN(c2ccc(Nc3cc(N(C)C(=O)Nc4c(Cl)c(OC)cc(OC)c4Cl)ncn3)cc2)CC1 [INFIGRATINIB] sit within? high

Which of the defined bands does the recorded Population Mitotic Cells (%) of "COc1cc(N2CCN(C)CC2)ccc1Nc1ncc2c(n1)N(C)c1ccccc1C(=O)N2C" sit within? low

Which of the defined bands does the recorded Population Mitotic Cells (%) of CCCn1c(=O)c2[nH]c(-c3cnn(Cc4cccc(C(F)(F)F)c4)c3)nc2n(CC)c1=O [GS 6201] sit within? middle

====

# Growth Rate per record follows
Test system: Fibroblast
Experiment: Incucyte cell viability with human fibroblast; further: filed as whole numbers so only -1 and 0 and 1 occur
Format: toxicity, cell-based
Settings: 18 h, 10 µM, compound concentration 10 uM, replicate number 1, timepoint 18 hours
Form: value (number only, do not type unit).

Recorded Growth Rate, per entry:
molecule="O=C(Nc1ccc(-n2nc(-c3cccnc3)cc2C(F)(F)F)cn1)c1ccc(-c2ccccc2)c(F)c1 [BI 2049]" reported_measurement=0
molecule=Cl.Oc1ccc2c3c1O[C@H]1c4[nH]c5c(c4C[C@@]4(O)[C@@H](C2)N(CC2CC2)CC[C@]314)C[C@@]1(O)[C@H]2Cc3ccc(O)c4c3[C@@]1(CCN2CC1CC1)[C@H]5O4 reported_measurement=0

Return Growth Rate for the following molecule: CN1CCC(=C2c3ccccc3CC(=O)c3sccc32)CC1.O=C(O)/C=C/C(=O)O [KETOTIFEN FUMARATE] 0

Return Growth Rate for the following molecule: "NS(=O)(=O)c1c(Cl)ccc(NC(=O)Nc2cccc(Cl)c2Cl)c1O" 1

====

# Population Hoechst High Intensity Objects (%) per record follows
System: HEK-293T
Assay: Multiplex assay against HEK293T
Type: toxicity, cell-based
Conditions: human, 24 h, 1 µM, compound concentration 1 uM, replicate 1
Your reply should be a number followed by the unit it is expressed in.

Recorded Population Hoechst High Intensity Objects (%), per entry:
molecule=Cl.O=c1c2cccn2c2ccccc2n1CCCN1CCC(c2ccc(Cl)cc2)CC1 reported_measurement=12%
molecule=CCCS(=O)(=O)c1nc(NC2CC2)cc(-c2ccc3c(ccn3C3CC(C)(C)NC(C)(C)C3)c2)n1 reported_measurement=14%
molecule=CN1CCN(C(=O)C(C)(C)c2ccc(C(=O)Nc3cn4cc(-c5cc(C(C)(C)C)cc(C(C)(C)C)c5)ccc4n3)cc2)CC1 reported_measurement=10%

Return Population Hoechst High Intensity Objects (%) for the following molecule: "CCOc1cc2ncc(C#N)c(Nc3ccc(OCc4ccccn4)c(Cl)c3)c2cc1NC(=O)/C=C/CN(C)C" 20%

Return Population Hoechst High Intensity Objects (%) for the following molecule: "COC(=N)c1nc2ccc3ncnc(Nc4ccc(OC)cc4F)c3c2s1" 11%

====

System: HEK-293T
Assay: Incucyte cell viability with HEK293T; further: filed as whole numbers so only -1 and 0 and 1 occur
Format: toxicity, cell-based
Conditions: human, 6 h, 10 µM, compound concentration 10 uM, replicate number 1, timepoint 6 hours
value_type: Growth Rate

Return Growth Rate for the following molecule: "CNC(=O)c1ccc(Nc2nc(OC3CCCC3)c3c(-c4ccc5nc(C)oc5c4)c[nH]c3n2)c(OC)c1" 0

Return Growth Rate for the following molecule: CN1CCN(C(=O)C(C)(C)c2ccc(C(=O)Nc3cn4cc(-c5ccncc5)ccc4n3)cc2)CC1 [T3-CLK] 0

Return Growth Rate for the following molecule: Cc1oncc1C(=O)Nc1ccc(C(F)(F)F)cc1 [LEFLUNOMIDE] 0

Return Growth Rate for the following molecule: CNC(=O)c1ccccc1Nc1cc(Nc2ccc(N3CCOCC3)cc2OC)ncc1C(F)(F)F [VS-4718] 0

Cited source for all entries: ChEMBL document CHEMBL4689842
